- Tested on: Escherichia coli
- Test Details: Antimicrobial activity against Escherichia coli ATCC 700603 incubated for 16 hrs by CLSI-based agar dilution method
- Type: functional
- Setup Conditions: ATCC 700603, 16 h
Quantity: MIC (µg/mL)

O=C(O)c1cn(C2CC2)c2nc(N3CCN(CC(O)Cn4cc([N+](=O)[O-])nc4Cl)CC3)c(F)cc2c1=O (stereo not given); 16
COc1c(N2CCCC(N(C)C[C@@H](O)Cn3cc([N+](=O)[O-])nc3C)C2)c(F)cc2c(=O)c(C(=O)O)cn(C3CC3)c12 (stereo not given in full); 8
CCn1cc(C(=O)O)c(=O)c2cc(F)c(N3CCN(CC(O)Cn4cc([N+](=O)[O-])nc4Cl)C(C)C3)c(F)c21 (stereo not given); 4
COc1c(N2CCN(C[C@H](O)Cn3cc([N+](=O)[O-])nc3C)C(C)C2)c(F)cc2c(=O)c(C(=O)O)cn(C3CC3)c12 (stereo not given in full); 32
COc1c(N2CCN(C(O)Cn3cc([N+](=O)[O-])nc3Cl)CC2)c(F)cc2c(=O)c(C(=O)O)cn(C3CC3)c12 (stereo not given); 4
COc1c(N2CCCC(N(C)CC(O)Cn3cc([N+](=O)[O-])nc3C)C2)c(F)cc2c(=O)c(C(=O)O)cn(C3CC3)c12 (stereo not given); 4
COc1c(N2C[C@@H]3CCCN(CC(O)Cn4cc([N+](=O)[O-])nc4C)[C@@H]3C2)c(F)cc2c(=O)c(C(=O)O)cn(C3CC3)c12 (stereo not given in full); 4
COc1c(N2C[C@@H]3CCCN(C[C@H](O)Cn4cc([N+](=O)[O-])nc4C)[C@@H]3C2)c(F)cc2c(=O)c(C(=O)O)cn(C3CC3)c12; 2
COc1c(N2CCCC(N(C)CC(O)Cn3cc([N+](=O)[O-])nc3Cl)C2)c(F)cc2c(=O)c(C(=O)O)cn(C3CC3)c12 (stereo not given); 4
COc1c(N2CCN(CC(O)Cn3cc([N+](=O)[O-])nc3C)C(C)C2)c(F)cc2c(=O)c(C(=O)O)cn(C3CC3)c12 (stereo not given); 8
COc1c(N2C[C@H]3CCCN(C(O)Cn4cc([N+](=O)[O-])nc4Cl)[C@H]3C2)c(F)cc2c(=O)c(C(=O)O)cn(C3CC3)c12 (stereo not given in full); 2
O=C(O)c1cn(C2CC2)c2cc(N3CCN(CC(O)Cn4cc([N+](=O)[O-])nc4Cl)CC3)c(F)cc2c1=O (stereo not given); 16
